Below, each of the variants is paired with its reported protein stability index value.
B1: C10orf62 (parent)
chain: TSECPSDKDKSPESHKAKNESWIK

Variants of: B1
Test: protein stability index of a GFP-peptide fusion (GPS, HEK-293T) (PSI 1-6); higher = more stable;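 note: lentivirally expressed fusions sorted by FACS into six bins by GFP to DsRed ratio, PSI derived from sequencing read proportions per bin multiplied by bin number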
Conditions: c terminus: a fixed tail appended
Please reply with the value in numeric form only.

Worked cases, protein stability index given:
H15D: 3.92
D9W: 2.98
E13H: 3.02

Query :: What does the record list as protein stability index for `H15P` ?
Result :: 3.92

Query :: What does the record list as protein stability index for `S6A` ?
Result :: 4.02

Query :: What does the record list as protein stability index for `S14N` ?
Result :: 3.95

Query :: What does the record list as protein stability index for `S11R` ?
Result :: 2.92
